target: T1, Peptide-35 (cysteine pairing not given here; also: biotinylated, site not given here); assay: ELISA, Fab on captured biotin-peptide
T1 peptide: EDFCYWYQWPICSD
Where no end group is shown, it is not given here.
readout.label: pEC50
Lab note — pEC50 values are minus log10 of concentrations in M.

[ask] Which pEC50 value is on record for TBD-17 (HC S104A) (Fab, V domains shown, Fab; also called HC S104A mutant) VH: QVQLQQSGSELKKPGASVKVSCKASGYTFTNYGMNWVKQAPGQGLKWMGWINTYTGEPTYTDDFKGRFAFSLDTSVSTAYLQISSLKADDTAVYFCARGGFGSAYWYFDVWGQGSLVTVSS VL: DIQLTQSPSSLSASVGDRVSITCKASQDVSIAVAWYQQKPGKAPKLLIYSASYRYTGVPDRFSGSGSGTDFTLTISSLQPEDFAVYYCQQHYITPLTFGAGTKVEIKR ?
[reply] 6.67
